Documented phosphorylation enrichment across a set of sequences
target: MERTK (UniProt Q12866); experiment: phosphorylation enrichment, bacterial display (enrichment ratio); higher = better substrate or ligand; peptides without Tyr show the background
Sequence (Q12866 whole entry, looked up): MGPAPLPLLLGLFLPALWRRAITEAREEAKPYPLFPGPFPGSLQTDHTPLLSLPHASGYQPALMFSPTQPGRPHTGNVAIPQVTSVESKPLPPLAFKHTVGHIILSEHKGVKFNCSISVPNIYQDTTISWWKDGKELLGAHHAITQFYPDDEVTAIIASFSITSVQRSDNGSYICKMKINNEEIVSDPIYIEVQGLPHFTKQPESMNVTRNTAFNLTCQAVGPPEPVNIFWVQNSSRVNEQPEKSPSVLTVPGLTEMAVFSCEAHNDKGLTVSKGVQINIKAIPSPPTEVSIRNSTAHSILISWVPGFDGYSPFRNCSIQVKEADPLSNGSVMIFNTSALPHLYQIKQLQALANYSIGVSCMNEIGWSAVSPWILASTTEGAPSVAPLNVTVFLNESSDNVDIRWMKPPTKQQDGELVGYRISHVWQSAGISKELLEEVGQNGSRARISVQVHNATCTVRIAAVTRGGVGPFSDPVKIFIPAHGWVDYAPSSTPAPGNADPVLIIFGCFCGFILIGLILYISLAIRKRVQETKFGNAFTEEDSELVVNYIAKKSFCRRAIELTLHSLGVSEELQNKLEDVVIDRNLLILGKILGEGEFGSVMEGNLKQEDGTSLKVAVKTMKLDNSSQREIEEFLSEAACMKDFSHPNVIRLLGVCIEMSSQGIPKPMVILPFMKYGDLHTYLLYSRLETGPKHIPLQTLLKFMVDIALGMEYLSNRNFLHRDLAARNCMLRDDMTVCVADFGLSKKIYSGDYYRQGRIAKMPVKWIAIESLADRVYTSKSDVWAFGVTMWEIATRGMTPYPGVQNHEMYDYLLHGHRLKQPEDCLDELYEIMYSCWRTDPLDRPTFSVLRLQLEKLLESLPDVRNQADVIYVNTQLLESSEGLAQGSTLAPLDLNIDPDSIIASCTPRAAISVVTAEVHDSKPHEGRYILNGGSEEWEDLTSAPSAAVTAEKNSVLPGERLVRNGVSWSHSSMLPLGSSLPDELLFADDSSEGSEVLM
Give the value as a plain number.

# count of solved cases: 2
biopolymer-sequence	phosphorylation enrichment
RGDTVYTVNCM [KBTBD13_Y404_R408C]	0.734
TVETKYDNISR [SETDB2_Y477]	0.393

So, REDVFYTSKLW [AKR1C2_Y81_I79V] ? Its phosphorylation enrichment was 1.3

---

molecular target: c-Src SH2; assay: SH2 binding enrichment of the phosphorylated peptide, bacterial display (enrichment ratio); higher = better substrate or ligand; peptides without Tyr show the background;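 also: peptide library displayed on the E. coli surface as eCPX fusions, selected cells deep-sequenced, score is each peptide's frequency after selection divided by its frequency in the input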
readout-name: SH2 binding enrichment
// response body must contain only the number

Examples from the recorded data:
biopolymer-sequence	SH2 binding enrichment
RRIYSYRGHLW [VHL_Y112_H110Y]	0.501
RAADYYSQQMA [GBP6_Y334]	0.545
SLQSEYVHFGG [CDC14A_Y591_YF]	0.629

Given item TDLAFYLVREG [ASL_Y376_K380E_YF] , the value recorded as its SH2 binding enrichment is 0.612

Reference source for all entries: the supplement of paper PMC10065799
